Taken from PubChem BioAssay AID651660.

Molecular target: DNA repair protein RAD52 homolog (Homo sapiens)
Test: inhibition of RAD52-mediated strand annealing – biochemical, FRET, single point, primary screen (AID 651660);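 also: 0% = median of neutral control wells and 100% = median of positive control wells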
Settings: Recombinant RAD52 ssDNA annealing, FRET fluorescence, 30 min; at 18.7 µM; active compounds read high
Out of some 1,900 compounds screened, about 15 (0.8%) were called active. This excerpt belongs to a sample that is enriched for actives.
Recorded inhibition for the following compounds
Answer in %, number only, no unit symbol.

{"columns": ["compound", "assaySystem", "unitsOfMeasure", "inhibition"],
 "data": [
  ["CC1(C)CC(NCc2ccccc2)CCO1 (centres undefined)", "DNA repair protein RAD52 homolog (Homo sapiens)", "%", -6.22],
  ["N=C1C(c2ccccc2)=C(O)CN1CCCO", "DNA repair protein RAD52 homolog (Homo sapiens)", "%", -1.52],
  ["Cc1nc2cc3ccccc3cc2c(=O)[nH]1", "DNA repair protein RAD52 homolog (Homo sapiens)", "%", -5.13],
  ["Cc1nc(NCc2ccco2)c(C#N)c2c1COC(C)(C)C2", "DNA repair protein RAD52 homolog (Homo sapiens)", "%", -36.8]
]}

stdin: Given the compound CC(C)OC(=O)C1C2C=CC3(CN(CC4CCCO4)C(=O)C13)O2 (centres undefined) , what is its reported inhibition?
stdout: -7.36

stdin: What value of measured inhibition is listed for `COc1ccc(Br)cc1C(=O)Nc1ccc(C(=O)O)cc1` ?
stdout: -5.54

stdin: // query inhibition value for entry `O=C(c1ccc(O)cc1)c1ccc(O)cc1O`
stdout: -19.8

stdin: Could you tell me which inhibition is on file for `CC(C)c1ccccc1OCCNC(=S)NC(=O)c1cccnc1` ?
stdout: -11.8

stdin: Field request: inhibition | item: `CC/C(=C(\c1ccc(O)cc1)c1ccc(OCCN(C)C)cc1)c1ccccc1`
stdout: 76

stdin: Tell me the measured inhibition of COc1ccc(CNCCC(c2ccc(F)cc2)c2ccc(OC(C)C)cc2)cc1OC (centres undefined) , please.
stdout: 57.6

stdin: inhibition lookup needed for `CC(=O)N1CC2(C)CN(C(C)=O)CC(C)(C1)C2` , thanks.
stdout: -4.54

stdin: Query (compound): `CC(=O)C1=C(NC(=O)c2ccc(C(F)(F)F)cc2)C[C@@H]2[C@H]1C2(C)C` ; field requested: inhibition
stdout: 4.2

stdin: Look at this compound and give its reported inhibition. COc1ccc(CN(CCC(c2ccccc2)c2ccc(OC(C)C)cc2)C(=O)CCl)cc1OC (centres undefined)
stdout: 28.8

stdin: Find the recorded inhibition belonging to CC1(C)CC(=O)C2=C(C1)c1c(ccc3ccccc13)NC2c1ccco1 (centres undefined) and report it.
stdout: -27.1

stdin: Quick check: inhibition of `COCCCNc1nc2c([nH]1)c(=O)[nH]c(=O)n2C` ?
stdout: -1.14

stdin: Request the reported inhibition associated with `CN(C)CCOc1ccccc1Cc1ccccc1`
stdout: 1.84

stdin: What does the record list as inhibition for `COc1cc(COc2ccc3c(C)c(Cc4ccccc4)c(=O)oc3c2)cc(OC)c1OC` ?
stdout: -0.647

stdin: Any idea what inhibition was measured for `Nc1cccc2nc3ccccc3cc12` ?
stdout: 99.5

stdin: Endpoint output: inhibition of `COc1ccc(-c2coc3c(CN4CCOCC4)c(O)ccc3c2=O)cc1` . Value?
stdout: 7.99

stdin: Param item = `Cn1c2ccc(CC(=O)O)cc2c2cc(CC(=O)O)ccc21` ; retrieve measured inhibition.
stdout: -173

stdin: I am curious: what inhibition value has been reported for `O=C1c2cccc3cccc(c23)C(=O)N1c1ccccn1` ?
stdout: -4.1

stdin: What value of inhibition has been reported for the following compound? CC12CN3CC(C)(CN(C1)C3c1ccc(Br)cc1O)C2 (centres undefined)
stdout: -9.4

stdin: I am curious: what inhibition value has been reported for `Nc1c2c(nc3ccccc13)CCCC2` ?
stdout: 18.1

stdin: Look at this compound and give its reported inhibition. `CCC(=O)Oc1ccc(/C(CC)=C(\CC)c2ccc(OC(=O)CC)cc2)cc1`
stdout: -4.46
